Measured composite z-score, listed per entry.
test: small-molecule binders of probe aLefty1, primary screen, biochemical, small-molecule microarray, 635/667 nm fluorescence (AID 1153); settings: higher = more signal;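 also: score merges spot fluorescence with signal-to-noise ratio from the scanned slide images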
API doc: respond with a numeric literal and nothing else, no unit.

Answered examples (5):
COc1ccc(O[C@H]2C=C[C@@H](c3ccccc3)O[C@@H]2COC(=O)CCC(C)=NO[C@@H](C)c2cc(-c3c(C)cc(C)cc3C)no2)cc1 : -0.378
CCOC(=O)CCN1C(=O)[C@H]2[C@H]3[C@H](O)[C@H](O)CC(=NOC[C@@H](O)COCc4ccco4)[C@@H]3CC[C@H]2C1=O : 0.0861
COCCNC(=O)OCC1CCCC2(CC(OC(=O)NCCc3ccc(F)cc3)CC(CCC(=O)N[C@@H](C)C(=O)OC)O2)O1 (stereo partly specified) : 0.0547
COCCOC(=O)N1C(=O)[C@@]2(c3cc(C#CC4(O)CCCCCC4)ccc31)[C@H](C(=O)N1CCN(c3ncccn3)CC1)[C@H]1C(=O)O[C@H](c3ccccc3)[C@H](c3ccccc3)N1[C@@H]2c1ccc(OCCO)cc1 : 0.485
CC(=O)OC[C@H]1O[C@H](CCON=C(C)CCC(=O)OC[C@H]2O[C@H](C#Cc3ccccc3)C=C[C@@H]2Oc2ccc(C)cc2)C=C[C@@H]1OC(C)=O : 0.28

Request: For the molecule CCCC[C@@H](O)C1=C(C)C[C@H]2C(=O)N(Cc3ccccc3)C(=O)[C@H]2[C@H]1CO , what composite z-score is on record?
Response: 0.0736

Request: For the molecule COC(=O)C1(C)C=C2C(=C(c3ccccc3)C(=O)C2C)CN1 (stereo unspecified) , what composite z-score is on record?
Response: 0.22

Request: For the molecule O=C1CCCC=C1C(O)CCOCc1ccccc1 (stereo unspecified) , what composite z-score is on record?
Response: -0.342

Request: For the molecule CC1(C)OCC(C(O)C2=CCCCC2=O)CO1 (stereo unspecified) , what composite z-score is on record?
Response: 0.138

Request: For the molecule CCOC(=O)NN=C1C[C@@H](O)[C@@H](O)[C@@H]2[C@@H]3C(=O)N(C4CCCCC4)C(=O)[C@@H]3CC[C@H]12 , what composite z-score is on record?
Response: -0.288

Request: For the molecule CC(C)NC(=O)[C@@]1(c2ccc([N+](=O)[O-])cc2)CC(=O)N(CC23CC4CC(CC(C4)C2)C3)[C@@H]1c1ccc(CO)cc1I , what composite z-score is on record?
Response: 0.167

Request: For the molecule O=C1C[C@@H](O)[C@@H](O)[C@@H]2[C@@H]3C(=O)N(C4CCCCC4)C(=O)[C@@H]3CC[C@H]12 , what composite z-score is on record?
Response: -0.103

Request: For the molecule C=CCN1C(=O)[C@]2(O[C@H](CCn3cc(CCO)nn3)[C@@H]([Si](C)(C)c3ccc(OC)cc3)[C@@H]2C)c2cc(N3CCOC3=O)ccc21 , what composite z-score is on record?
Response: 0.0509

Request: For the molecule COc1ccc(COC(=O)NN=C2C[C@@H](O)[C@@H](O)[C@@H]3[C@@H]4C(=O)N(Cc5ccc6c(c5)OCO6)C(=O)[C@@H]4CC[C@@H]23)cc1 , what composite z-score is on record?
Response: 1.15

Request: For the molecule COCC1=C2[C@@H](CCc3ccccc3)OB(O)C[C@@H]2n2c(=O)n(-c3ccccc3)c(=O)n2C1 , what composite z-score is on record?
Response: -0.0816

Request: For the molecule COCCCNC(=O)[C@@]1(CCS(=O)(=O)c2ccccc2)N=C(c2ccc(OCCCO)cc2)O[C@H]1c1ccccc1 , what composite z-score is on record?
Response: 0.812

Request: For the molecule CC(C)=CCCC(C)=CCON=C1[C@H]2CCn3c(=O)n(Cc4cc5c(cc4Cl)OCO5)c(=O)n3[C@H]2[C@H](O)[C@@H]2O[C@H]12 , what composite z-score is on record?
Response: -0.0559

Request: For the molecule N#Cc1ccc(NN2C(C(O)c3cc(C(F)(F)F)cc(C(F)(F)F)c3)C=CC3C(=O)N(c4ccccc4)C(=O)C32)cc1 (stereo unspecified) , what composite z-score is on record?
Response: 0.0971

Request: For the molecule C#C[C@@H](CC)O[Si](C#Cc1ccc(Oc2ccccc2)cc1)(C(C)C)C(C)C , what composite z-score is on record?
Response: 0.0404

Request: For the molecule O=C1[C@H]2[C@H]3[C@H](O)[C@H](O)CC(=NO[C@@H]4O[C@H](CO)[C@@H](O)[C@H](O)[C@H]4O)[C@@H]3CC[C@H]2C(=O)N1Cc1ccccc1 , what composite z-score is on record?
Response: -0.115

Request: For the molecule COC(=O)[C@@]1(Cc2ccc(F)cc2)[C@@H]2C(=CC(=O)[C@H]2CC(=O)C(=O)N(C)C)CN1C(=O)c1ccccc1 , what composite z-score is on record?
Response: 0.589

Sourced from PubChem BioAssay
